- Tested on: PIP5K2B;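 note: KINOMEscan kinase panel screen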
- assay-setup: concentration: 1 μM, replicates: in singlicate; n = 1
endpoint-label: %Inh (%)
Numeric only. Scale: %

Lab note: `COc1cc2c(cc1OCCN1CCN(C)CC1)ncc1c3ccc(C#N)cc3[nH]c21` gave %Inh of 94.8

GET /value?item= `C[C@@H](Oc1cc(-n2cnc3ccc(NC(=O)NC(C)(C)C)cc32)sc1C(N)=O)c1ccccc1Cl` &field=%Inh returns 10

// sample COc1ccc(Nc2nccc(N3CCC(NC(=O)Nc4cc(C)ccc4C)C3)n2)cc1 (centres unmarked) , its %Inh was 10

Briefly, %Inh measured for `COCCNC(=O)c1ccc(-c2cc(C(=O)NC3CC3)cc(F)c2C)cc1` : 0

Entry `CNc1ncnc2[nH]ncc12` — recorded %Inh = 0

Looking up `O=c1cc(N2CCOCC2)nc2n(Cc3cccc(F)c3)ccn12` , I found its %Inh recorded as 21

Briefly, %Inh measured for `Nc1nccc(-c2c(-c3ccc(F)cc3)ncn2C2CCN(CC(F)(F)F)CC2)n1` : 0

The compound identified as `N#Cc1ccc(-c2cc(-c3c[nH]nc3-c3ccccn3)ccn2)cc1` registered its %Inh at 23

%Inh recorded for this compound, `Cc1cn2c(=O)cc(N3CCOCC3)nc2n1Cc1cccc(Cl)c1Cl` , is 0

%Inh recorded for this compound, `Nc1nc(-c2ccc3c(N)n[nH]c3c2)cc(N2CCCC2)n1` , is 0

Input `CCCCCc1nc2c(N)ncnc2n1CCCCC` . Output %Inh: 0

// recorded %Inh for `CC(C)(C)n1cnc2c(N)ncnc21` : 24

Value of measured %Inh for the entry COc1cc(Nc2nccc(N3CCC(NC(=O)c4cccc(NC(C)=O)c4)C3)n2)cc(OC)c1OC (centres unmarked) : 18

%Inh measured on `CN1c2ccc(CNc3ccc(F)cc3)cc2-c2c(cnn2C)S1(=O)=O` = 0

Reference source: paper PMC5540273
